# test system: DRB1*1302 (Homo sapiens, UniProt P01903+P01911, A100E/A169T/K41T/L162R/M171V/P40S/Q125H/Q178H/Q39Y/Q99D/R42S/S66N/T262R/V115G/W38E/Y61H)
# Sequence (P01903 26-254 limits assumed, other chains not shown): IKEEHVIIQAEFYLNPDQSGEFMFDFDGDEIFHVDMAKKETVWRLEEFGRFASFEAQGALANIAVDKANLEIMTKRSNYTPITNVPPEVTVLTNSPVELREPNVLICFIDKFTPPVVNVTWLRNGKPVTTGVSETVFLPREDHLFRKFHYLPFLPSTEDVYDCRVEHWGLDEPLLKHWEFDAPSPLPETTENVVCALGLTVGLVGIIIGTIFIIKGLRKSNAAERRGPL
# method notes: biochemical
# Assay type: binding
# conditions used: read-out: IC50 nM to purified HLA DRB1*1302
// reported IC50 per item

compound structure	result unit	IC50
CC[C@H](C)[C@H](N)C(=O)NCC(=O)N[C@@H](CCCNC(=N)N)C(=O)N[C@@H](Cc1ccccc1)C(=O)N[C@@H](Cc1ccc(O)cc1)C(=O)N[C@H](C(=O)N[C@@H](CCC(N)=O)C(=O)N[C@@H](CCSC)C(=O)N[C@@H](CS)C(=O)N[C@H](C(=O)N[C@@H](CCC(=O)O)C(=O)N[C@@H](CC(C)C)C(=O)N[C@@H](CCCCN)C(=O)N[C@@H](CC(C)C)C(=O)N[C@@H](CO)C(=O)O)[C@@H](C)O)[C@@H](C)CC	nM	640
CC[C@H](C)[C@H](NC(=O)[C@@H](N)CC(=O)O)C(=O)N[C@@H](CC(C)C)C(=O)N[C@@H](CCSC)C(=O)N[C@@H](CCCNC(=N)N)C(=O)N[C@@H](CCSC)C(=O)N[C@@H](CO)C(=O)N[C@@H](CCCCN)C(=O)N[C@@H](CCSC)C(=O)N[C@@H](CCC(N)=O)C(=O)N[C@@H](CC(C)C)C(=O)NCC(=O)N[C@@H](CO)C(=O)N[C@@H](CO)C(=O)N[C@@H](CO)C(=O)O	nM	423

====

# test system: DRB1*0401 (Homo sapiens, UniProt P01903+P01911, A100K/A169T/F76Y/I96L/K127E/L162R/M171V/N62H/P40V/Q125Y/R42H/S133A/S149N/S66Y/V115G/V209L/W38E)
# Construct: made in house; host or cells: EBV-transformed homozygous human B cell lines, transfected fibroblasts or single-allele 721.221 transfectants
# method notes: biochemical
# Type: binding
# conditions used: read-out: IC50 nM to purified HLA DRB1*0401
API: label(entry) gives 1 if the entry's IC50 is strictly smaller than 3000 nM; on equality or larger values it gives 0.

compound structure	answer label
CSCC[C@H](NC(=O)[C@H](CO)NC(=O)[C@H](Cc1ccccc1)NC(=O)[C@H](CC(N)=O)NC(=O)[C@H](C)NC(=O)[C@@H](N)C(C)C)C(=O)N[C@@H](CCC(=O)O)C(=O)N[C@@H](CC(C)C)C(=O)N1CCC[C@H]1C(=O)N[C@@H](CO)C(=O)N[C@@H](Cc1ccccc1)C(=O)NCC(=O)N[C@H](C(=O)N[C@@H](CO)C(=O)NCC(=O)O)C(C)C	1
CC[C@H](C)[C@H](NC(=O)CNC(=O)[C@H](CC(N)=O)NC(=O)[C@H](Cc1ccc(O)cc1)NC(=O)[C@H](CCCCN)NC(=O)[C@H](CC(C)C)NC(=O)[C@@H](NC(=O)[C@H](C)NC(=O)[C@@H](N)C(C)C)C(C)C)C(=O)N[C@H](C(=O)N[C@H](C(=O)N[C@@H](CC(=O)O)C(=O)N[C@H](C(=O)N[C@H](C(=O)N[C@@H](CCCCN)C(=O)N[C@@H](CO)C(=O)N[C@@H](Cc1c[nH]c2ccccc12)C(=O)O)[C@@H](C)CC)[C@@H](C)O)[C@@H](C)O)[C@@H](C)CC	1
CC[C@H](C)[C@H](N)C(=O)N[C@@H](Cc1ccc(O)cc1)C(=O)N[C@@H](CCC(N)=O)C(=O)N[C@H](C(=O)N[C@@H](CC(C)C)C(=O)N[C@@H](CO)C(=O)N[C@H](C(=O)N[C@@H](Cc1ccc(O)cc1)C(=O)N[C@@H](CO)C(=O)N[C@H](C(=O)N[C@H](C(=O)N[C@@H](C)C(=O)N[C@@H](CO)C(=O)N[C@@H](CO)C(=O)N[C@@H](CC(C)C)C(=O)N[C@@H](C)C(=O)O)C(C)C)[C@@H](C)O)[C@@H](C)CC)[C@@H](C)CC	1
CC[C@H](C)[C@H](NC(=O)CNC(=O)[C@H](CCCNC(=N)N)NC(=O)[C@@H](N)CCC(N)=O)C(=O)N[C@@H](CC(C)C)C(=O)N[C@@H](CCC(=O)O)C(=O)N[C@@H](CC(=O)O)C(=O)N[C@@H](CCC(=O)O)C(=O)N[C@@H](CCC(N)=O)C(=O)N[C@@H](CCSC)C(=O)N[C@@H](Cc1ccc(O)cc1)C(=O)N[C@@H](CCC(N)=O)C(=O)N[C@@H](CCCCN)C(=O)N[C@@H](CS)C(=O)N[C@@H](CS)C(=O)O	1
CC[C@H](C)[C@H](NC(=O)[C@H](CCC(=O)O)NC(=O)[C@H](CCC(N)=O)NC(=O)[C@H](CCC(=O)O)NC(=O)[C@@H](NC(=O)[C@H](CCC(=O)O)NC(=O)[C@H](CC(C)C)NC(=O)[C@H](CC(C)C)NC(=O)[C@H](CC(C)C)NC(=O)[C@@H](N)CCC(N)=O)C(C)C)C(=O)N[C@@H](CCCNC(=N)N)C(=O)N[C@H](C(=O)N[C@@H](Cc1ccccc1)C(=O)N[C@@H](CO)C(=O)N[C@@H](Cc1ccccc1)C(=O)O)[C@@H](C)O	0
